System name: Endothelin-1 receptor (Sus scrofa)
Sequence (Q29010 whole entry): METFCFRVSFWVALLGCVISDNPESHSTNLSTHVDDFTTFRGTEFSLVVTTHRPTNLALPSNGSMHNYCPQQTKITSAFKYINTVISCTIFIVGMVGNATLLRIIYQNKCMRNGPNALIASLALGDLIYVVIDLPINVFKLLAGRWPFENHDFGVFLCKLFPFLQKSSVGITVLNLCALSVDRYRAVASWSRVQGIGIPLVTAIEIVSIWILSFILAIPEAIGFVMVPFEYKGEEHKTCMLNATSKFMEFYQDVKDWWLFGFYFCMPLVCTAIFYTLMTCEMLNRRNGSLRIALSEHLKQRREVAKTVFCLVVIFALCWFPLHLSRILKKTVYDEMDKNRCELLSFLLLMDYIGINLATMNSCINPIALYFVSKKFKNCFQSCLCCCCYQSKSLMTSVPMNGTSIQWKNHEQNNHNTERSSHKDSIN
Measurement description: Inhibitory effect against porcine Endothelin A receptor
Where a SMILES comes first, the peptide text is derived from it.
Below, each of the compounds is paired with its reported IC50 value.
Provide the reading as a plain figure in µM.

{"Compound": "CC[C@H](C)[C@H]1NC(=O)[C@H](C)NC(=O)[C@@H](CCC(=O)O)NC(=O)[C@@H](Cc2c[nH]c3ccccc23)NC(=O)[C@H](CC(C)C)NC1=O (HELM PEPTIDE1{A.[CC[C@H](C)[C@@H](N[*:1])C(=O)[*:2]].L.[dW].[dE]}$PEPTIDE1,PEPTIDE1,1:R1-5:R2$$$V2.0)", "System name": "Endothelin-1 receptor (Sus scrofa)", "Unit abbrev": "µM", "Endpoint value": 1.4}

Recorded IC50 of CC(C)C[C@@H]1NC(=O)[C@@H](C(C)C)NC(=O)[C@@H]2CCCN2C(=O)[C@@H](CS(=O)(=O)O)NC(=O)[C@@H](Cc2c[nH]c3ccccc23)NC1=O (single isomer, unassigned) , please.
0.021
